The measurements presented in this section are drawn from PubChem BioAssay AID720577.

target: CCHF virus vOTU protease domain (L polyprotein); assay: CCHF virus vOTU protease inhibition, Pep AMC substrate counterscreen, fluorescence, confirmatory IC50 (AID 720577); details: purified vOTU
Activity calls are given as the source filed them. How the calls were made is not given here.
OUTCOME MEASURE: IC50

COMPOUND | TARGET ENTITY | OUTCOME MEASURE | REPORTED MEASUREMENT
NC1=C(Br)C(=O)c2ncccc2C1=O | CCHF virus vOTU protease domain (L polyprotein) | IC50 | 1.1 µM
CCCCn1c(NS(=O)(=O)c2ccccc2)c(C(=O)OCC)c2nc3ccccc3nc21 | CCHF virus vOTU protease domain (L polyprotein) | IC50 | > 115 µM (inactive)
CC(C)NC1=C(Cl)C(=O)c2ccccc2C1=O | CCHF virus vOTU protease domain (L polyprotein) | IC50 | inactive
C[n+]1c2ccccc2nc2ccc(NCCO)cc21 | CCHF virus vOTU protease domain (L polyprotein) | IC50 | inactive
O=C(O)c1cccc(NC2=C(N3CCOCC3)C(=O)c3ccccc3C2=O)c1 | CCHF virus vOTU protease domain (L polyprotein) | IC50 | inactive

For every item below, please supply its IC50.
1. COc1ccccc1N=Nc1c(O)[nH]c(=S)[nH]c1=O
2. c1coc(-c2nnc(-c3ccco3)nn2)c1
3. CC1CCCC(NC(=O)COC(=O)c2ccc([N+](=O)[O-])s2)C1C (stereo not drawn)
4. CCCCCCCCCCCCN1[C@@H](CC(=O)O)c2cc(F)ccc2S1(=O)=O
5. CNc1ccc2nc3ccccc3[n+](C)c2c1
6. O=C1C(Nc2ccccc2)=C(N2CCCCC2)C(=O)c2ccccc21
7. COc1ccc(S(=O)(=O)/N=C2\C=C(Nc3ccc(O)cc3)C(=O)c3ccccc32)cc1
8. Cc1cnc(C2OCCO2)c2cccc(N)c12

inactive
inactive
inactive
inactive
inactive
inactive
1.33 µM
5.37 µM

* * *

molecular target: CCHF virus vOTU protease domain (L polyprotein); assay: CCHF virus vOTU protease inhibition, Pep AMC substrate counterscreen, fluorescence, confirmatory IC50 (AID 720577); conditions: purified vOTU
Calls of active or inactive are those of the source. No rule for the calls is given here.
Returns: one label drawn from active, inactive

Here's what some known entries look like.
COMPOUND | TARGET ENTITY | CATEGORY
O=C(NC1=CC(=O)c2ccccc2C1=O)c1ccccc1 | CCHF virus vOTU protease domain (L polyprotein) | inactive
CC(=O)c1ccc(NC(=S)Nc2cccc3cnccc23)cc1 | CCHF virus vOTU protease domain (L polyprotein) | active
O=C(c1ccccc1)c1coc2c1C(=O)c1ccccc1C2=O | CCHF virus vOTU protease domain (L polyprotein) | inactive

What did this assay record as the result for `COc1ccc(/C=N/NC(=O)c2nn(-c3ccccc3)c(=O)c3c(N)scc23)cc1` ?
inactive

What did this assay record as the result for CCN(CC)CCCC(C)n1c2nc(=O)[nH]c(=O)c-2nc2cc(Cl)ccc21 (configuration not stated) ?
active

What did this assay record as the result for `O=C(O)CCCNc1cc(N2CCN(C(=O)c3ccco3)CC2)c2noc3c2c1C(=O)c1ccccc1-3` ?
inactive

What did this assay record as the result for `COc1cc(CCNC2=CC(=O)c3ncccc3C2=O)ccc1O` ?
inactive

* * *

molecular target: CCHF virus vOTU protease domain (L polyprotein); test: CCHF virus vOTU protease inhibition, Pep AMC substrate counterscreen, fluorescence, confirmatory IC50 (AID 720577); conditions: purified vOTU
The source made the active and inactive calls. The rule behind the calls is not given here.
Returns: one label drawn from active, inactive

Here's what some known entries look like.
COMPOUND | CATEGORY
Cc1cc(NC2=CC(=O)C(=O)c3ccccc32)no1 | inactive
COc1cc(NCCCCCCN)c2ncccc2c1OC | active
CN(C)S(=O)(=O)c1cccc(NC(=S)Nc2cccc3cnccc23)c1 | inactive

What did this assay record as the result for `COc1ccc(N2C(=O)[C@@H]3[C@H](C2=O)[C@H]2c4ccccc4C=CN2[C@@H]3C(C)=O)cc1` ?
inactive

What did this assay record as the result for `C=CCN1C=CC(=C/C=C(/C#N)C(=O)OCC)C=C1` ?
inactive

What did this assay record as the result for `CCc1ccc(S(=O)(=O)Nc2cc(SCC(=O)O)c(O)c3ccccc23)cc1` ?
inactive

What did this assay record as the result for `COC1=C(Br)C(=O)c2nc(C)ccc2C1=O` ?
inactive

What did this assay record as the result for `O=S(=O)(Nc1cc2nc3ccccc3nc2n1Cc1ccccc1)c1ccc(Cl)cc1` ?
active

What did this assay record as the result for `CC(C)N(C(=O)Nc1ccc2nsnc2c1)C(C)C` ?
inactive

What did this assay record as the result for `CC(C)C[C@H](NC(=O)c1[nH]cnc1C(=O)N[C@@H](C)C(=O)OC(C)(C)C)C(=O)OC(C)(C)C` ?
inactive

* * *

target: CCHF virus vOTU protease domain (L polyprotein); assay: CCHF virus vOTU protease inhibition, Pep AMC substrate counterscreen, fluorescence, confirmatory IC50 (AID 720577); conditions: purified vOTU
Active and inactive are the calls of the source. How the calls were made is not given here.
Returns: one label drawn from active, inactive

Here's what some known entries look like.
COMPOUND | CATEGORY
CC(=O)N(C1=C(Cl)C(=O)c2ccccc2C1=O)c1ccc(C(=O)O)cc1 | active
Nc1scc2c(C(=O)N/N=C/c3ccc(Cl)cc3)nn(-c3ccccc3)c(=O)c12 | inactive
O=C1NC(c2ccc(-c3ccccc3[N+](=O)[O-])o2)C(C(=O)c2ccc(Cl)cc2)C(O)(C(F)(F)F)N1 (stereo not given) | inactive
Cc1c(Cl)cnc(NC(=O)COC(=O)c2ccc([N+](=O)[O-])s2)c1Cl | inactive
CC(C)=CCC1=C(OCC(=O)O)C(=O)c2ccccc2C1=O | inactive

What did this assay record as the result for CCC(C)n1c(NC(=O)c2ccccc2)c(C#N)c2nc3ccccc3nc21 (stereo not given) ?
inactive

What did this assay record as the result for `O=C(COC(=O)c1ccc([N+](=O)[O-])s1)NCc1ccc(F)cc1` ?
inactive

What did this assay record as the result for O=C(NC1=C(NC2CCS(=O)(=O)C2)C(=O)c2ccccc2C1=O)c1ccccc1 (stereo not given) ?
inactive

What did this assay record as the result for `O=C1Cc2ccccc2C(=O)N1CCc1ccccc1` ?
active

What did this assay record as the result for `Cc1ccc(CNc2ccc(O)cc2)cc1` ?
inactive

* * *

biological target: CCHF virus vOTU protease domain (L polyprotein); assay: CCHF virus vOTU protease inhibition, Pep AMC substrate counterscreen, fluorescence, confirmatory IC50 (AID 720577); settings: purified vOTU
The source made the active and inactive calls. No rule for the calls is given here.
Returns: one label drawn from active, inactive

COMPOUND SMILES | CATEGORY
CCCCCCCCCCOC(=O)Cn1c(COc2ccc(Cl)cc2)[n+](C)c2ccccc21 | active
Cc1ccc(S(=O)(=O)/N=C2\C=C(Nc3cccc(C(=O)O)c3)C(=O)c3ccccc32)cc1 | active
O=C1Cc2ccccc2C(=O)N1 | active
Cc1ccc(NC2=C(N3CCOCC3)C(=O)c3ccccc3C2=O)cc1 | inactive

Here is the next item to consider.
What did this assay record as the result for `CC(=O)c1ccc(NC2=C(N3CCOCC3)C(=O)c3ccccc3C2=O)cc1` ?
inactive
